test system: pro-protein convertase of the subtype nine binding to recombinant LDLR-AB domain (Homo sapiens, UniProt Q8NBP7)
Sequence (Q8NBP7 153-692): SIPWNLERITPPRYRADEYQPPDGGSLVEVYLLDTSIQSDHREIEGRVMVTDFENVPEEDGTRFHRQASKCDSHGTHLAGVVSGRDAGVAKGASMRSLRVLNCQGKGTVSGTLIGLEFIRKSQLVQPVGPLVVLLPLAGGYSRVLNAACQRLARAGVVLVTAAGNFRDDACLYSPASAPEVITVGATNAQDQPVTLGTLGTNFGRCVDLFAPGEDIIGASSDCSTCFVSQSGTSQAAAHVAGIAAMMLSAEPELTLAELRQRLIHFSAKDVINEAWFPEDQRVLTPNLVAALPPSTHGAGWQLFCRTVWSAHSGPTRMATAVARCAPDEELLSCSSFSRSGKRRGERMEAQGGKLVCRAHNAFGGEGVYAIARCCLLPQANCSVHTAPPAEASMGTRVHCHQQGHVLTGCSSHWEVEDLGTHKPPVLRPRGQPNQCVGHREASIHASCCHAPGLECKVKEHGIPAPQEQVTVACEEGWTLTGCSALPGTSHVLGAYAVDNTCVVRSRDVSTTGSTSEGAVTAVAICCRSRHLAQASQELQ
Sequence (Q8NBP7 31-152 partner limits assumed): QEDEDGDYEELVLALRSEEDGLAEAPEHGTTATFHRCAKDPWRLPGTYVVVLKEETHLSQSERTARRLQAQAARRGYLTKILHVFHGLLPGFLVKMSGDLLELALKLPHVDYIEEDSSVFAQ
method: in vitro quantitative solid phase binding assay (ELISA) of the subtype nine pro-protein convertase to immobilized LDLR
assay conditions: Concentration 100 μM
Below, each entry is listed with its recorded inhibition at 100 µM.

chem smiles: CCC(=NOCc1ccc(C)cc1)c1ccc(OCC(=O)NCC2CCOCC2)nc1
units text: %
inhibition at 100 µM: 50

chem smiles: Cc1ccc(CON=C(Cc2ccccc2)c2ccc(OCC(=O)NCC3CCOCC3)c(C)c2)cc1
units text: %
inhibition at 100 µM: 48

chem smiles: CCC(=NOCc1ccc(F)cc1)c1ccc(OCC(=O)NCC2CCOCC2)nc1
units text: %
inhibition at 100 µM: 29

chem smiles: O=C(COc1ccc(C(Cc2ccccc2)=NOCc2ccc(C(F)(F)F)cc2)cc1)NCC1CCOCC1
units text: %
inhibition at 100 µM: 61

chem smiles: CCC(=NOCc1ccc(C(F)(F)F)cc1)c1ccc(NCC(=O)NCC2CCOCC2)cc1
units text: %
inhibition at 100 µM: 50

chem smiles: O=C(COc1ccc(C(Cc2ccccc2)=NOCc2cccc(C(F)(F)F)c2)cc1)NCC1CCOCC1
units text: %
inhibition at 100 µM: 79

chem smiles: O=C(COc1ccc(C(Cc2ccccc2)=NOCc2ccc(OC(F)(F)F)cc2)cc1)NCC1CCOCC1
units text: %
inhibition at 100 µM: 42

chem smiles: CCC(=NOCc1ccc(C(F)(F)F)cc1)c1ccc(OCC(=O)NCC2CCOCC2)cc1
units text: %
inhibition at 100 µM: 57

---

test system: pro-protein convertase of the subtype nine binding to recombinant LDLR-AB domain (Homo sapiens)
method: in vitro quantitative solid phase binding assay (ELISA) of the subtype nine pro-protein convertase to immobilized LDLR
assay conditions: Concentration 10 μM
Below, each entry is listed with its recorded inhibition at 10 µM.

chem smiles: O=C(COc1ccc(C(CN2CCSCC2)=NOCc2ccc(C(F)(F)F)cc2)cc1)NCC1CCOCC1
inhibition at 10 µM, %: 37

chem smiles: O=C(COc1ccc(C=NOCc2ccc(C(F)(F)F)cc2)cn1)NCC1CCOCC1
inhibition at 10 µM, %: 40

chem smiles: O=C(COc1ccc2c(c1)CCCC2=NOCc1ccc(C(F)(F)F)cc1)NCC1CCOCC1
inhibition at 10 µM, %: 42

chem smiles: CCC(=NOCc1ccc(C)cc1)c1ccc(OCC(=O)NCC2CCOCC2)nc1
inhibition at 10 µM, %: 34

---

test system: pro-protein convertase of the subtype nine binding to recombinant LDLR-AB domain (Homo sapiens)
method: in vitro quantitative solid phase binding assay (ELISA) of the subtype nine pro-protein convertase to immobilized LDLR
assay conditions: Concentration 1 μM
Respond with True for inhibition at 1 µM values of 20% and above, False for values below.

chem smiles: O=C(COc1ccc(C(Cc2ccccc2)=NOCc2cccc(C(F)(F)F)c2)cc1)NCC1CCOCC1
answer label: False
--
chem smiles: O=C(COc1ccc(C(CN2CCOCC2)=NOCc2ccc(C(F)(F)F)cc2)cc1)NCC1CCOCC1
answer label: False
--
chem smiles: O=C(COc1ccc(C(CO)=NOCc2ccc(C(F)(F)F)cc2)cc1)NCC1CCOCC1
answer label: False
--
chem smiles: CCC(=NOCc1ccc(OC)cc1)c1ccc(OCC(=O)NCC2CCOCC2)nc1
answer label: True
--
chem smiles: CC(=NOCc1ccc(C(F)(F)F)cc1)c1ccc(OCC(=O)NCC2CCOCC2)nc1
answer label: True
--
chem smiles: O=C(COc1ccc(C=NOCc2ccc(C(F)(F)F)cc2)cc1)NCC1CCOCC1
answer label: False
--
chem smiles: Cc1ccc(CON=C(Cc2ccccc2)c2ccc(OCC(=O)NCC3CCOCC3)cc2)cc1
answer label: False
--
chem smiles: CCC(=NOCc1ccc(C(F)(F)F)cc1)c1ccc(OCC(=O)NCC2CCOCC2)nc1
answer label: True
--
chem smiles: O=C(COc1ccc(C(Cc2ccncc2)=NOCc2ccc(C(F)(F)F)cc2)cc1)NCC1CCOCC1
answer label: True
--
chem smiles: O=C(COc1ccc(C(CN2CCSCC2)=NOCc2ccc(C(F)(F)F)cc2)cc1)NCC1CCOCC1
answer label: True
--
chem smiles: O=C(COc1ccc2c(c1)CCCC2=NOCc1ccc(C(F)(F)F)cc1)NCC1CCOCC1
answer label: False
--
chem smiles: CCC(=NOCc1ccc(F)cc1)c1ccc(OCC(=O)NCC2CCOCC2)nc1
answer label: False
--
chem smiles: CC(=NOCc1ccc(C(F)(F)F)cc1)c1ccc(OCC(=O)NCC2CCOCC2)cc1
answer label: False
--
chem smiles: Cc1cc(C(Cc2ccsc2)=NOCc2ccc(C(F)(F)F)cc2)ccc1OCC(=O)NCC1CCOCC1
answer label: False
--
chem smiles: CCC(=NOCc1ccc(C(F)(F)F)cc1)c1ccc(NCC(=O)NCC2CCOCC2)cc1
answer label: True
--
chem smiles: CCC(=NOCc1ccc(C(F)(F)F)cc1)c1ccc(OCC(=O)NCC2CCOCC2)cc1
answer label: True
